System: PC 12 cells
Assay type: cell-based
DETAILS: PC 12 cells in dark, 37° C., 5 minutes; n=3, mean±SEM; Table 2; read-out: LC50 (dark)

MOLECULE: O=C(O)CCCCCN1CCCc2cc(/C=C/C3=[O+][B-](F)(C(F)(F)F)OC(/C=C/c4cc5c6c(c4)CCCN6CCC5)=C3Br)ccc21 (stereo not shown) [Compound I]
CC50: > 10 µM

* * *

Test system: PC 12 cells
Assay type: cell-based
The entries below come with measured CC50 values attached.
QUANTITY KIND: CC50

MOLECULE: O=C(O)CCCCCN1CCCc2cc(/C=C/C3=[O+][B-](F)(C(F)(F)C(F)(F)C(F)(F)F)OC(/C=C/c4cc5c6c(c4)CCCN6CCC5)=C3Br)ccc21 (stereo not drawn)
QUANTITY KIND: CC50
OBSERVED RESULT: > 10 µM
//
MOLECULE: O=C(O)CCCCCN1CCCc2cc(/C=C/C3=[O+][B-](F)(C(F)(F)C(F)(F)F)OC(/C=C/c4cc5c6c(c4)CCCN6CCC5)=C3Br)ccc21 (stereo not drawn)
QUANTITY KIND: CC50
OBSERVED RESULT: > 10 µM
//
MOLECULE: CN(C)c1ccc(/C=C/C2=C(Br)C(/C=C/c3ccc4c(c3)CCCN4CCCCCC(=O)O)=[O+][B-](F)(F)O2)cc1
QUANTITY KIND: CC50
OBSERVED RESULT: 0.024 µM

* * *

Below is a list of entries, each paired with its recorded Maximum wavelength λmax (nm) value.
ASSAY EXPLANATION: Maximum wavelength λmax of photocatalysts
Format: physicochemical
DETAILS: Table 1
QUANTITY KIND: Maximum wavelength λmax (nm)

MOLECULE: C[n+]1c2ccc(Br)cc2nn1-c1cc2c3c(c1)CCCN3CCC2 [Compound 3, reference compound]
OBSERVED RESULT: 456
--
MOLECULE: CN(C)c1ccc(/C=C/C2=CC(=C/C=C3C=CC(=[N+](C)C)C=C3)/O[B-](F)(F)O2)cc1 [CRANAD-2, reference compound]
OBSERVED RESULT: 579
--
MOLECULE: CN(C)c1ccc(/C=C/C2=C(Br)C(/C=C/c3ccc4c(c3)CCCN4CCCCCC(=O)O)=[O+][B-](F)(C(F)(F)C(F)(F)F)O2)cc1 (centres unmarked) [Compound J]
OBSERVED RESULT: 622
--
MOLECULE: CN(C)c1ccc(/C=C/C2=C(Br)C(/C=C/c3ccc4c(c3)CCCN4CCCCCC(=O)O)=[O+][B-](F)(F)O2)cc1 [Compound L]
OBSERVED RESULT: 623
--
MOLECULE: CN(C)c1ccc(/C=C/C2=C(Br)C(/C=C/c3ccc4c(c3)CCCN4CCCCCC(=O)O)=[O+][B-](F)(C(F)(F)F)O2)cc1 (centres unmarked) [Compound K]
OBSERVED RESULT: 620

* * *

Tested on: PC 12 cells
Type: cell-based
DETAILS: PC 12 cells, light irradiation 780 nm, 37° C., 5 minutes; n=3, mean±SEM; Table 2; read-out: LC50 (light)

COMPOUND: O=C(O)CCCCCN1CCCc2cc(/C=C/C3=[O+][B-](F)(C(F)(F)F)OC(/C=C/c4cc5c6c(c4)CCCN6CCC5)=C3Br)ccc21 (stereo not shown)
ASSAY SYSTEM: PC 12 cells
CC50 (nM): 1670

* * *

ASSAY SYSTEM: Aβ1-42 (Homo sapiens, UniProt P05067)
Construct: phosphate buffer (pH 7.4)/cell culture solution (containing 0.1% horse serum) (1:3) containing Aβ1-42 (10 μM)
Sequence (P05067 672-713): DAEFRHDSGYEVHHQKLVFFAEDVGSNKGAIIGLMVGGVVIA
ASSAY EXPLANATION: Degree of oxygenation of pre-aggregated Aβ1-42 (MALDI-TOF MS), Test Example 10
Format: biochemical
DETAILS: pre-aggregated Aβ1-42 20 μM, catalyst 2 μM, phosphate buffer pH 7.4, 780 nm (14 mW), 37° C., 30 minutes
Measured Degree of oxygenation (%) of Aβ42 (λ = 780 nm), listed per entry for reference.
QUANTITY KIND: Degree of oxygenation (%) of Aβ42 (λ = 780 nm)

COMPOUND: O=C(O)CCCCCN1CCCc2cc(/C=C/C3=[O+][B-](F)(C(F)(F)C(F)(F)C(F)(F)F)OC(/C=C/c4cc5c6c(c4)CCCN6CCC5)=C3Br)ccc21 (stereo not shown) [Compound S]
OBSERVED RESULT: 37

COMPOUND: O=C(O)CCCCCN1CCCc2cc(/C=C/C3=[O+][B-](F)(C(F)(F)F)OC(/C=C/c4cc5c6c(c4)CCCN6CCC5)=C3Br)ccc21 (stereo not shown) [Compound I]
OBSERVED RESULT: 52

COMPOUND: CN(C)c1ccc(/C=C/C2=C(Br)C(/C=C/c3ccc4c(c3)CCCN4CCCCCC(=O)O)=[O+][B-](F)(C(F)(F)C(F)(F)F)O2)cc1 (stereo not shown) [Compound J]
OBSERVED RESULT: 41

COMPOUND: O=C(O)CCCCCN1CCCc2cc(/C=C/C3=[O+][B-](F)(C(F)(F)C(F)(F)F)OC(/C=C/c4cc5c6c(c4)CCCN6CCC5)=C3Br)ccc21 (stereo not shown) [Compound E]
OBSERVED RESULT: 58

* * *

ASSAY SYSTEM: Aβ1-42 (Homo sapiens)
Construct: phosphate buffer (pH 7.4)/cell culture solution (containing 0.1% horse serum) (1:3) containing Aβ1-42 (10 μM)
ASSAY EXPLANATION: Degree of oxygenation of pre-aggregated Aβ1-42 (MALDI-TOF MS), Test Example 10
Format: biochemical
DETAILS: pre-aggregated Aβ1-42 20 μM, catalyst 2 μM, phosphate buffer pH 7.4, 660 nm, 37° C., 30 minutes
QUANTITY KIND: Degree of oxygenation (%) of Aβ42 (λ = 660 nm)

COMPOUND: CN(C)c1ccc(/C=C/C2=CC(=C/C=C3C=CC(=[N+](C)C)C=C3)/O[B-](F)(F)O2)cc1 [CRANAD-2, reference compound]
OBSERVED RESULT: trace
--
COMPOUND: C[n+]1c2ccc(Br)cc2nn1-c1cc2c3c(c1)CCCN3CCC2 [Compound 3, reference compound]
OBSERVED RESULT: trace
--
COMPOUND: CN(C)c1ccc(/C=C/C2=C(Br)C(/C=C/c3ccc4c(c3)CCCN4CCCCCC(=O)O)=[O+][B-](F)(C(F)(F)F)O2)cc1 (centres unmarked)
OBSERVED RESULT: 86%
--
COMPOUND: CN(C)c1ccc(/C=C/C2=C(Br)C(/C=C/c3ccc4c(c3)CCCN4CCCCCC(=O)O)=[O+][B-](F)(F)O2)cc1
OBSERVED RESULT: 73%
--
COMPOUND: CN(C)c1ccc(/C=C/C2=C(Br)C(/C=C/c3ccc4c(c3)CCCN4CCCCCC(=O)O)=[O+][B-](F)(C(F)(F)C(F)(F)F)O2)cc1 (centres unmarked)
OBSERVED RESULT: 79%

* * *

System: PC 12 cells
Assay type: cell-based
DETAILS: PC 12 cells in dark, 5 minutes then 48 hours; n=5, mean±SEM; Table 1; read-out: LC50 (dark)

MOLECULE: CN(C)c1ccc(/C=C/C2=C(Br)C(/C=C/c3ccc4c(c3)CCCN4CCCCCC(=O)O)=[O+][B-](F)(C(F)(F)F)O2)cc1 (stereo not shown) [Compound K]
CC50 / nM: 1890

* * *

ASSAY EXPLANATION: Stability of catalyst in neutral phosphate buffer without or under light irradiation (HPLC), Test Example 5
Type: physicochemical
DETAILS: under light irradiation (660 nm)

COMPOUND: O=C(O)CCCCCN1CCCc2cc(/C=C/C3=[O+][B-](F)(C(F)(F)F)OC(/C=C/c4cc5c6c(c4)CCCN6CCC5)=C3Br)ccc21 (centres unmarked)
stability of catalyst (ranking): stability was higher

COMPOUND: O=C(O)CCCCCN1CCCc2cc(/C=C/C3=[O+][B-](F)(C(F)(F)C(F)(F)F)OC(/C=C/c4cc5c6c(c4)CCCN6CCC5)=C3Br)ccc21 (centres unmarked)
stability of catalyst (ranking): stability was higher

* * *

ASSAY EXPLANATION: Maximum wavelength λmax of photocatalysts
Format: physicochemical
DETAILS: Table 2
# reported Maximum wavelength λmax (nm); entries follow
QUANTITY KIND: Maximum wavelength λmax (nm)

COMPOUND: O=C(O)CCCCCN1CCCc2cc(/C=C/C3=[O+][B-](F)(C(F)(F)F)OC(/C=C/c4cc5c6c(c4)CCCN6CCC5)=C3Br)ccc21 (stereo not shown)
OBSERVED RESULT: 645
//
COMPOUND: O=C(O)CCCCCN1CCCc2cc(/C=C/C3=[O+][B-](F)(C(F)(F)C(F)(F)C(F)(F)F)OC(/C=C/c4cc5c6c(c4)CCCN6CCC5)=C3Br)ccc21 (stereo not shown)
OBSERVED RESULT: 633
//
COMPOUND: CN(C)c1ccc(/C=C/C2=C(Br)C(/C=C/c3ccc4c(c3)CCCN4CCCCCC(=O)O)=[O+][B-](F)(C(F)(F)C(F)(F)F)O2)cc1 (stereo not shown)
OBSERVED RESULT: 620
//
COMPOUND: O=C(O)CCCCCN1CCCc2cc(/C=C/C3=[O+][B-](F)(C(F)(F)C(F)(F)F)OC(/C=C/c4cc5c6c(c4)CCCN6CCC5)=C3Br)ccc21 (stereo not shown)
OBSERVED RESULT: 639
